# targetOfAssay: SARS-COV-2 RBD extracellular domain expressed with a C-terminal mouse IgG2a Fc (SARS-CoV-2)
# testProtocol: Biacore SPR, mAb captured on anti-hFc, 25 C
assayMetric: Kd (nM)
Enter your answer as a number in nM; do not include the unit.

Exam item: Give Kd for the following binder: mAb14284 (antibody, V domains shown) VH: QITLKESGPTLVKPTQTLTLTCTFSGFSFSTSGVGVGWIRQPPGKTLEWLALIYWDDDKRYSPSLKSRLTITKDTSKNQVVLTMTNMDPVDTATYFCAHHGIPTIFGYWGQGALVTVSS VL: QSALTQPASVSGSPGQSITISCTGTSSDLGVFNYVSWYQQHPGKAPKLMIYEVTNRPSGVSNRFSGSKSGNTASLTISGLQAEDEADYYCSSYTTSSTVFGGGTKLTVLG
Marked response: 0.0255
